All values here come from patent US20110071108A1.

Test system: Salmonella choleraesuis
Test: Bacterial panel testing, MIC by broth microdilution
Type: cell-based
Conditions: 20-24 hours growth
Property label: MIC SC

Task item: I have this compound here, Cl.Cl.Cl.Cl.Cl.Cl.Cl.NCCCC(=O)NC[C@H]1O[C@@H]2O[C@H]3[C@H](O)[C@@H](O)[C@@H](O[C@H]4[C@H](O)[C@@H](O)[C@@H](O[C@H]5[C@H](O)[C@@H](O)[C@@H](O[C@H]6[C@H](O)[C@@H](O)[C@@H](O[C@H]7[C@H](O)[C@@H](O)[C@@H](O[C@H]8[C@H](O)[C@@H](O)[C@@H](O[C@H]1[C@H](O)[C@H]2O)O[C@@H]8CNC(=O)CCCN)O[C@@H]7CNC(=O)CCCN)O[C@@H]6CNC(=O)CCCN)O[C@@H]5CNC(=O)CCCN)O[C@@H]4CNC(=O)CCCN)O[C@@H]3CNC(=O)CCCN , and I need its recorded MIC SC.
Reply: >200 µg/mL

Task item: I have this compound here, CC(C)(C)OC(=O)NCCCC[C@H](N)C(=O)NCC1OC2OC3C(CNC(=O)[C@@H](N)CCCCNC(=O)OC(C)(C)C)OC(OC4C(CNC(=O)[C@@H](N)CCCCNC(=O)OC(C)(C)C)OC(OC5C(CNC(=O)[C@@H](N)CCCCNC(=O)OC(C)(C)C)OC(OC6C(CNC(=O)[C@@H](N)CCCCNC(=O)OC(C)(C)C)OC(OC7C(CNC(=O)[C@@H](N)CCCCNC(=O)OC(C)(C)C)OC(OC8C(CNC(=O)[C@@H](N)CCCCNC(=O)OC(C)(C)C)OC(OC1C(O)C2O)C(O)C8O)C(O)C7O)C(O)C6O)C(O)C5O)C(O)C4O)C(O)C3O (stereo partly drawn) , and I need its recorded MIC SC.
Reply: >200 µg/mL

Task item: I have this compound here, Cl.Cl.Cl.Cl.Cl.Cl.Cl.N=C(N)NCCCCSCC1OC2OC3C(CSCCCCNC(=N)N)OC(OC4C(CSCCCCNC(=N)N)OC(OC5C(CSCCCCNC(=N)N)OC(OC6C(CSCCCCNC(=N)N)OC(OC7C(CSCCCCNC(=N)N)OC(OC8C(CSCCCCNC(=N)N)OC(OC1C(O)C2O)C(O)C8O)C(O)C7O)C(O)C6O)C(O)C5O)C(O)C4O)C(O)C3O (stereo not drawn) , and I need its recorded MIC SC.
Reply: >200 µg/mL
